Assay: Fraction unbound in rat brain by equilibrium dialysis method
Type: ADME, tissue-based
ATTRIBUTE MEASURED: fraction unbound

fraction unbound measured on COc1nc(N2CCC(OC)CC2)nc(OC)c1NC(=O)CC(C)(C)C = 0.13

----------
Please go through the items and note down their pIC50.
Test: Toxicity in human THLE cells assessed as ATP depletion
Type: cell-based
pIC50: −log10 of the molar value.

pIC50 for COc1nc(N2CCC(OC)CC2)nc(OC)c1NC(=O)CCC1CCCC1 is 4.09

Documented pIC50 of COc1nc(N2CC(F)(F)C2)nc(OC)c1NC(=O)CC(C)(C)C : < 3.52

response.value for COc1nc(N2CCC(F)(F)CC2)nc(OC)c1NC(=O)CC(C)(C)C (field: pIC50) = < 3.52

Reported pIC50 of COCCN(C)c1nc(OC)c(NC(=O)CC(C)(C)C)c(OC)n1 : < 3.52

The value of pIC50 measured for the compound COc1nc(N2CCOCC2)nc(OC)c1NC(=O)CC(C)(C)C turned out to be < 3.52

Sure, the documented pIC50 for COc1nc(N2CCC(OC)CC2)nc(OC)c1NC(=O)CC(C)(C)C is < 3.52

The compound listed as CCOC(=O)Nc1ccc(NCc2ccc(F)cc2)cc1N has a reported pIC50 of 3.67

Form field pIC50, entry COc1nc(N2CCCCC2)nc(OC)c1NC(=O)CC(C)(C)C : < 3.52

Looking up COc1nc(N2CCCOCC2)nc(OC)c1NC(=O)CC(C)(C)C , I found its pIC50 recorded as < 3.52

----------
Answer each item with its documented max activation.
Molecular target: Voltage-gated potassium channel, KQT; KCNQ2(Kv7.2)/KCNQ3(Kv7.3) (Homo sapiens) (UniProt O43526+O43525)
Assay: Activation of human Kv7.2/7.3 expressed in CHOK1 cells; also: test concentration or dose not given here
Format: cell-based
Settings: CHO-K1

Measured max activation, COc1nc(N2C[C@@H]3C[C@H]2CO3)nc(OC)c1NC(=O)CC(C)(C)C : 101%

Notebook: COc1nc(N2CCCOCC2)nc(OC)c1NC(=O)CC(C)(C)C , max activation read as 85%

Record COc1nc(N2CCC(OC(C)C)CC2)nc(OC)c1NC(=O)CC(C)(C)C . Reported max activation: 145%

Sample COc1nc(N2CCC(OC)CC2)nc(OC)c1NC(=O)CCC1CCCC1 ; max activation observed: 126%

// max activation value for COc1nc(N2CC(F)(F)C2)nc(OC)c1NC(=O)CC(C)(C)C : 103%

Short answer for COc1nc(N2CCC(OC)CC2)nc(OC)c1NC(=O)CCC(C)C : max activation was 132%

Lab book: max activation of COc1nc(N2CCC(F)(F)CC2)nc(OC)c1NC(=O)CC(C)(C)C noted as 99%

Record COc1nc(N2CCC(OC)CC2)nc(OC)c1NC(=O)CC1CCCCC1 . Reported max activation: 152%

Entry COc1nc(N2CCC(OC)CC2)nc(OC)c1NC(=O)CC(C)C ; max activation = 138%

COCCN(C)c1nc(OC)c(NC(=O)CC(C)(C)C)c(OC)n1 has a reported max activation of 166%

According to the records, this compound COc1nc(N2CCOCC2)nc(OC)c1NC(=O)CC(C)(C)C displays max activation of 95%

----------
Exercise: for every item that follows, state its recorded max activation.
Target: Voltage-gated potassium channel, KQT; KCNQ2(Kv7.2)/KCNQ3(Kv7.3) (Homo sapiens) (UniProt O43526+O43525)
Experiment: Activation of human Kv7.2/7.3 expressed in CHOK1 cells; also: test concentration or dose not given here
Format: cell-based
Details: CHO-K1
Quick reminder: number only, in %, skip the unit.

Record summary for COc1nc(N2CC(OC)C2)nc(OC)c1NC(=O)CC(C)(C)C : reported max activation = 103

Record COc1nc(N2CCC(OC)CC2)nc(OC)c1NC(=O)CC(C)(C)C . Reported max activation: 147

get_value(item= COc1nc(N2CCCCC2)nc(OC)c1NC(=O)CC(C)(C)C , readout=max activation) returns 182

get_value(item= COc1nc(N2CCC(OC)CC2)nc(OC)c1NC(=O)CC1CCCC1 , readout=max activation) returns 143

For reference, reported max activation for COc1nc(N2CCSCC2)nc(OC)c1NC(=O)CC(C)(C)C stands at 92

The recorded max activation for entry COc1nc(N2CC3(COC3)C2)nc(OC)c1NC(=O)CC(C)(C)C equals 106

----------
Assay: Fraction unbound in rat plasma by equilibrium dialysis method
Type: ADME, cell-free
ATTRIBUTE MEASURED: fraction unbound

For reference, reported fraction unbound for COc1nc(N2CCC(OC)CC2)nc(OC)c1NC(=O)CC(C)(C)C stands at 0.184
